Measurement notes: AUC in rat at 3 mg/kg, po
Format: ADME, organism-based
Parameters: dose 3 mg/kg
Measurement setup: in vivo
Outcome measure: AUC (ng·h/mL)
One number for each entry, in ng·h/mL.

Give me AUC for each of these compounds, listed below.
1. COc1cc(C(C)C)c(Oc2cnc(NC(CO)CO)nc2N)cc1I
2. CC(C)Oc1ccc(Nc2nc(=O)n(CC(C)(C)C(=O)O)c(=O)n2Cc2ccc(Cl)cc2)cc1F
3. Cc1ccc(Cn2c(Nc3ccc(OC(C)C)c(Cl)c3)nc(=O)n(CCC(=O)O)c2=O)cc1

1: 369; 2: 6990; 3: 14300

###

Task for the reader: assign each of the following molecules its reported bioavailability.
Measurement notes: Oral bioavailability in rat or 1 mg/kg
Format: ADME, organism-based
Measurement setup: in vivo
Provide a numeric answer, followed by its unit.

CC(C)Oc1ccc(Nc2nc(=O)n(CCC(=O)O)c(=O)n2Cc2ccc(Cl)cc2)cc1Cl | 43.2%
CC(C)Oc1ccc(/N=c2\[nH]c(=O)n(CC(=O)O)c(=O)n2Cc2ccc(Cl)cc2)cc1Cl | 71.2%
CC(C)Oc1ccc(Nc2nc(=O)c(CC(=O)O)cn2Cc2ccc(Cl)cc2)cc1Cl | 79.9%
CC(C)Oc1ccc(Nc2cc(=O)n(CCC(=O)O)c(=O)n2Cc2ccc(Cl)cc2)cc1Cl | 61.5%

Lookup result for CC(C)Oc1ccc(Nc2nc(=O)n(C(C)C)c(=O)n2Cc2ccc(Cl)cc2)cc1 ; measured bioavailability: 25.2%

###

Measurement notes: Microsomal stability in rat liver microsomes assessed as parent compound remaining incubated for 30 mins in presence or absence of NADPH generating system
Format: ADME, Microsome
Measurement setup: read-out: Stabilty
Outcome measure: remaining at 0.5 h (%)
One number for each entry, in %.

Consider the reported remaining at 0.5 h for these molecules:
CC(C)Oc1ccc(Nc2nc(=O)n(CCC#N)c(=O)n2Cc2ccc(Cl)cc2)cc1F | 30
CC(=O)n1c(=O)nc(Nc2ccc(OC(C)C)c(F)c2)n(Cc2ccc(Cl)cc2)c1=O | 2
CC(C)Oc1ccc(Nc2nc(=O)n(CC#N)c(=O)n2Cc2ccc(Cl)cc2)cc1F | 41
CC(C)Oc1ccc(Nc2nc(=O)n(CCCCO)c(=O)n2Cc2ccc(Cl)cc2)cc1F | 36

We next turn to a different molecule, shown below.
Lookup result for CC(C)Oc1ccc(Nc2nc(=O)n(CCCO)c(=O)n2Cc2ccc(Cl)cc2)cc1F ; measured remaining at 0.5 h: 29

###

Task for the reader: assign each of the following molecules its reported remaining at 0.5 h.
Measurement notes: Microsomal stability in human liver microsomes assessed as parent compound remaining incubated for 30 mins in presence or absence of NADPH generating system
Assay type: ADME, Microsome
Measurement setup: read-out: Stabilty
Provide a numeric answer, followed by its unit.

Consider the reported remaining at 0.5 h for these molecules:
CC(C)Oc1ccc(Nc2nc(=O)n(CCC(N)=O)c(=O)n2Cc2ccc(Cl)cc2)cc1F | 94%
CC(C)Oc1ccc(Nc2nc(=O)[nH]c(=O)n2Cc2ccc(Cl)cc2)cc1F | 78%

We next turn to a different molecule, shown below.
Lookup result for CNC(=O)CCn1c(=O)nc(Nc2ccc(OC(C)C)c(F)c2)n(Cc2ccc(Cl)cc2)c1=O ; measured remaining at 0.5 h: 86%

All values here come from ChEMBL document CHEMBL4732178.
